Each item that follows carries a reported z-score of subpopulation abundance.
test system: Saccharomyces cerevisiae BY4741 SeMeCo community; assay: z-score of subpopulation abundance vs DMSO median, subpopulation auxotrophic for U; higher = larger share of this subpopulation than in DMSO controls; conditions: 10 µM; 24 h; SM minimal medium; subpopulation (auxotrophy): U
Counter-ions that a name gives are not always drawn.
Reply with just the number.

C[C@@H](NCCCc1cccc(C(F)(F)F)c1)c1cccc2ccccc12 [Cinacalcet HCl] = -1.21
O=C1NC(=O)C(c2ccccc2)(c2ccccc2)N1 [Phenytoin] = 0.51
CC(=O)NC[C@H]1CN(c2ccc(N3CCOCC3)c(F)c2)C(=O)O1 [Linezolid] = 1.39
CC/C=C(\C(=O)N[C@@H]1C(=O)N2C(C(=O)OCOC(=O)C(C)(C)C)=C(COC(N)=O)CS[C@H]12)c1csc(N)n1 [Cefcapene Pivoxil Hydrochloride] = 0.38
CC(=O)O[C@H]1C[C@@]2(C)[C@@H](C[C@@H](O)[C@H]3[C@@]4(C)CC[C@@H](O)[C@@H](C)[C@@H]4CC[C@@]32C)/C1=C(\CCC=C(C)C)C(=O)O [Fusidate Sodium] = 0.34
Cc1cnc(NC(=O)C2=C(O)c3ccccc3S(=O)(=O)N2C)s1 [Meloxicam] = -0.19
Cc1cccc(C)c1NC(=O)C1CCCCN1C (stereo unspecified) [Mepivacaine HCl] = 1.52
O=C(c1ccc(OCCN2CCCCC2)cc1)c1c(-c2ccc(O)cc2)sc2cc(O)ccc12 [Raloxifene] = -1.73

Lab note: next molecule to report on.
Inquiry: I am curious: what z-score of subpopulation abundance value has been reported for CC1=C(CC(=O)O)c2cc(F)ccc2/C1=C\c1ccc([S+](C)[O-])cc1 (stereo unspecified) [Sulindac] ?
Reply text: -1.92

---

tested on: Saccharomyces cerevisiae BY4741 SeMeCo community; test: z-score of subpopulation abundance vs DMSO median, subpopulation auxotrophic for HU; higher = larger share of this subpopulation than in DMSO controls; settings: 10 µM; 24 h; SM minimal medium; subpopulation (auxotrophy): HU
Counter-ions that a name gives are not always drawn.
Lab note: anything with z-score of subpopulation abundance at or over -0.4 counts as TRUE; the rest go in FALSE.

Inquiry: Does CN(C)CCCN1c2ccccc2Sc2ccc(Cl)cc21 [Chlorpromazine HCl] have a reported z-score of subpopulation abundance of at least -0.4?
Reply text: TRUE

Inquiry: Determine whether this compound has z-score of subpopulation abundance no lower than -0.4: Cc1cccc(C)c1NC(=O)C1CCCCN1C (configuration not stated) [Mepivacaine]
Reply text: FALSE

Inquiry: Textbook exercise: given the entry OC(c1cc(C(F)(F)F)nc2c(C(F)(F)F)cccc12)C1CCCCN1 (configuration not stated) [Mefloquine HCl] , state whether its z-score of subpopulation abundance is greater than or equal to -0.4.
Reply text: TRUE

---

tested on: Saccharomyces cerevisiae BY4741 SeMeCo community; test: z-score of subpopulation abundance vs DMSO median, subpopulation auxotrophic for U; higher = larger share of this subpopulation than in DMSO controls; conditions: 10 µM; 24 h; SM minimal medium; subpopulation (auxotrophy): U
Counter-ions that a name gives are not always drawn.
Catalogue of compounds with associated z-score of subpopulation abundance
Answer with the value's number alone.

COc1ccc2cc3[n+](cc2c1OC)CCc1cc2c(cc1-3)OCO2 [Berberine Sulfate] = 1.36
C[C@@H](O)[C@H]1C(=O)N2C(C(=O)O)=C(S[C@@H]3CN[C@H](C(=O)N(C)C)C3)[C@H](C)[C@H]12 [Meropenem Trihydrate] = -0.82
CN(C)CCc1c[nH]c2ccc(C[C@H]3COC(=O)N3)cc12 [Zolmitriptan] = -0.08

Next compound, z-score of subpopulation abundance to be filled in.
Inquiry: Which z-score of subpopulation abundance is reported with Saccharomyces cerevisiae BY4741 SeMeCo community for this entry: O=C(O)c1ccccc1O [Salicylic acid] ?
Reply text: -0.01
